Data provenance is ChEMBL document CHEMBL4145528.

system: HeLa; assay: Cytotoxicity against human HeLa cells assessed as reduction in cell viability after 24 hrs by MTT assay; type: functional, cell-based
observable: IC50 (µM)
Give your result in µM as a bare value.

*Q* Requested read-out: IC50. Entry: CN1C/C(=C\c2cccc(Br)c2)C(=O)/C(=C/c2cccc([N+](=O)[O-])c2)C1
*A* 11.1

*Q* Requested read-out: IC50. Entry: COc1cc(/C=C2\CN(C)C/C(=C\c3ccc(Cl)c(Cl)c3)C2=O)cc(OC)c1OC
*A* 13.5

*Q* Requested read-out: IC50. Entry: COc1ccc(/C=C2\CN(C)C/C(=C\c3ccccc3F)C2=O)cc1OC
*A* 14.3

*Q* Requested read-out: IC50. Entry: CN1C/C(=C\c2cccc([N+](=O)[O-])c2)C(=O)/C(=C/c2ccc(Cl)cc2Cl)C1
*A* 8.9

*Q* Requested read-out: IC50. Entry: CN1C/C(=C\c2ccc(Cl)cc2)C(=O)/C(=C/c2ccc(C#N)cc2)C1
*A* 11.2

---

tested on: HepG2; test: Cytotoxicity against human HepG2 cells assessed as reduction in cell viability after 24 hrs by MTT assay; format: functional, cell-based; conditions: HepG2, 24 h
So I've got a bunch of compounds here, and I need their IC50 values.
Give your result in µM as a bare value.

*Q* Requested read-out: IC50. Entry: COc1cccc2c1C(=O)c1c(O)c3c(c(O)c1C2=O)C[C@@](O)(C(=O)CO)C[C@@H]3O[C@H]1C[C@H](N)[C@H](O)[C@H](C)O1 [DOXORUBICIN]
*A* 0.68

*Q* Requested read-out: IC50. Entry: COc1cc(/C=C2\CN(C)C/C(=C\c3ccc(Cl)cc3Cl)C2=O)cc(OC)c1
*A* 6.25

*Q* Requested read-out: IC50. Entry: CN1C/C(=C\c2ccc(Cl)cc2)C(=O)/C(=C/c2cccc([N+](=O)[O-])c2)C1
*A* 8.21

*Q* Requested read-out: IC50. Entry: COc1cc(/C=C2\CN(C)C/C(=C\c3cc(OC)c(OC)c(OC)c3)C2=O)cc(OC)c1
*A* 0.89

*Q* Requested read-out: IC50. Entry: COc1cc(/C=C/C(=O)CC(=O)/C=C/c2ccc(O)c(OC)c2)ccc1O [CURCUMIN]
*A* 13.8

*Q* Requested read-out: IC50. Entry: CN1C/C(=C\c2ccc(C#N)cc2)C(=O)/C(=C/c2ccccc2F)C1
*A* 0.59

*Q* Requested read-out: IC50. Entry: CN1C/C(=C\c2cccc(Br)c2)C(=O)/C(=C/c2cccc([N+](=O)[O-])c2)C1
*A* 4.89

*Q* Requested read-out: IC50. Entry: COc1cc(/C=C2\CN(C)C/C(=C\c3ccccc3F)C2=O)cc(OC)c1
*A* 1.24

---

tested on: L02; test: Cytotoxicity against human LO2 cells assessed as reduction in cell viability after 24 hrs by MTT assay; format: cell-based; settings: L02, 24 h
observable: pIC50
Units for pIC50: none; it is -log10 of a concentration expressed in mol/L.

*Q* Requested read-out: pIC50. Entry: COc1cc(/C=C2\CN(C)C/C(=C\c3ccc(Cl)c(Cl)c3)C2=O)cc(OC)c1
*A* 4.97

*Q* Requested read-out: pIC50. Entry: COc1cc(/C=C2\CN(C)C/C(=C\c3ccccc3F)C2=O)cc(OC)c1OC
*A* 4.92

*Q* Requested read-out: pIC50. Entry: CN1C/C(=C\c2ccc(Br)cc2)C(=O)/C(=C/c2ccc(C#N)cc2)C1
*A* 4.98

*Q* Requested read-out: pIC50. Entry: COc1ccc(/C=C2\CN(C)C/C(=C\c3ccccc3F)C2=O)cc1OC
*A* 4.98
